Molecular target: human recombinant ETA receptor (Homo sapiens, UniProt P25101)
Sequence (P25101 21-427): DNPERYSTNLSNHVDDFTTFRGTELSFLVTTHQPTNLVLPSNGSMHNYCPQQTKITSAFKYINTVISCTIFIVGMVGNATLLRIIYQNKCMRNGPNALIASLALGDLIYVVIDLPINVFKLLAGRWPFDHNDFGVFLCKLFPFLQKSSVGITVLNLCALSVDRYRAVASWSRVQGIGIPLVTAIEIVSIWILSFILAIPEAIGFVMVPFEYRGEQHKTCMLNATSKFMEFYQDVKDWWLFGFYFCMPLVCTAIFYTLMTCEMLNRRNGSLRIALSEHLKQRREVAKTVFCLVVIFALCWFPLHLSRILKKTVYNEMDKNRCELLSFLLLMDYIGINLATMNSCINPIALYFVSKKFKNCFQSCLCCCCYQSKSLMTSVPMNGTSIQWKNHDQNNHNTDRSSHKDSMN
Experiment: Inhibition of [125I]ET-1 binding to membranes from CHO cells carrying human ETA receptors
Threshold-based label: IC50 under 5 nM gives True, IC50 not under 5 nM gives False.

Structure	Target or test system	Label
COc1ccc(Cl)c(Oc2c(NS(=O)(=O)NCc3ccccc3)ncnc2OCCOc2ncc(SC)cn2)c1	human recombinant ETA receptor (Homo sapiens, UniProt P25101)	True
COc1ccccc1Oc1c(NS(=O)(=O)Nc2ccc(C(C)C)cc2)nc(-c2ccncc2)nc1OC	human recombinant ETA receptor (Homo sapiens, UniProt P25101)	False
COc1ccccc1Oc1c(NS(=O)(=O)NCc2ccccc2)nc(C2CC2)nc1OCCOc1ncc(SC)cn1	human recombinant ETA receptor (Homo sapiens, UniProt P25101)	False
O=S(=O)(NCc1ccccn1)Nc1ncnc(OCCOc2ncc(Br)cn2)c1-c1ccc(Cl)cc1	human recombinant ETA receptor (Homo sapiens, UniProt P25101)	False
COc1ccccc1Oc1c(NS(=O)(=O)NCc2ccccc2)nc(C2CC2)nc1OCCOc1ncc(Br)cn1	human recombinant ETA receptor (Homo sapiens, UniProt P25101)	False
CSc1cnc(OCCOc2ncnc(NS(=O)(=O)NCc3ccc4c(c3)OCO4)c2-c2ccc(C)cc2)nc1	human recombinant ETA receptor (Homo sapiens, UniProt P25101)	True
Cc1ccc(-c2c(NS(=O)(=O)NCc3ccc4c(c3)OCO4)ncnc2OCCOc2ncc(Br)cn2)cc1	human recombinant ETA receptor (Homo sapiens, UniProt P25101)	True
COc1ccccc1CNS(=O)(=O)Nc1nc(-c2ncccn2)nc(OCCOc2ncccn2)c1Oc1ccccc1OC	human recombinant ETA receptor (Homo sapiens, UniProt P25101)	False
COc1ccccc1Oc1c(NS(=O)(=O)NCc2cccs2)nc(-c2ccncc2)nc1OCCOC(=O)Nc1ccccn1	human recombinant ETA receptor (Homo sapiens, UniProt P25101)	True
COc1ccccc1Oc1c(NS(=O)(=O)Nc2ccc(C(C)(C)C)cc2)nc(-c2ccncc2)nc1OCCO	human recombinant ETA receptor (Homo sapiens, UniProt P25101)	False
CCNS(=O)(=O)Nc1ncnc(OCCOc2ncc(Br)cn2)c1-c1ccc(Br)cc1	human recombinant ETA receptor (Homo sapiens, UniProt P25101)	True
COc1ccccc1Oc1c(NS(=O)(=O)NC2CC2)nc(-c2ccncc2)nc1OCCOc1ncc(Br)cn1	human recombinant ETA receptor (Homo sapiens, UniProt P25101)	False
COc1ccccc1Oc1c(NS(=O)(=O)NCC2CCCCC2)nc(-c2ncccn2)nc1OCCOc1ncc(Br)cn1	human recombinant ETA receptor (Homo sapiens, UniProt P25101)	True
COc1ccccc1Oc1c(NS(=O)(=O)NCc2ccccn2)nc(-c2ncccn2)nc1OCCOc1nccs1	human recombinant ETA receptor (Homo sapiens, UniProt P25101)	False
